# Tested on: human HepG2 cells
# assayProcedure: MTT cell viability (cytotoxicity) assay

molecule	assayedTarget	endpointUnit	% Viability
COc1ccc(/C=N/c2ccc(S(N)(=O)=O)cc2)c(OC)c1	human HepG2 cells	%	53.43
O=[N+]([O-])c1cccc(/C=N/c2ccc(S(=O)(=O)Nc3nccs3)cc2)c1	human HepG2 cells	%	59.32
COC(=O)c1ccccc1NC(=O)CN1C(=O)c2ccccc2S1(=O)=O	human HepG2 cells	%	76.9
O=C1c2ccccc2C(=O)N1CCN1CCNCC1	human HepG2 cells	%	84.56
CCOc1ccc(/C=N/c2ccc(S(N)(=O)=O)cc2)cc1	human HepG2 cells	%	74.6
O=C(N/N=C/c1ccc2c(c1)OCO2)c1ccccc1O	human HepG2 cells	%	75.88
Nc1ccc(S(=O)(=O)Nc2ncccn2)cc1	human HepG2 cells	%	76.78
COc1cc(/C=N/NC(=O)c2sc3ccccc3c2Cl)cc(OC)c1OC	human HepG2 cells	%	74.67
O=C(c1ccc([N+](=O)[O-])cc1Cl)N1CCCc2ccccc21	human HepG2 cells	%	67.89
COc1ccc(C2N(Cc3ccccc3)CCN2Cc2ccccc2)cc1	human HepG2 cells	%	75.74
COc1cc(C(=O)Nc2ccccc2C(=O)NCC2CCCO2)cc(OC)c1OC (stereo not drawn)	human HepG2 cells	%	76.11
N#Cc1c(/N=C/c2ccc([N+](=O)[O-])o2)sc2c1CCCC2	human HepG2 cells	%	75.6
Cc1ccc(C2N(Cc3ccccc3)CCCN2Cc2ccccc2)o1	human HepG2 cells	%	82.72
COc1ccc(OC)c(/C=N/c2ccc(S(N)(=O)=O)cc2)c1	human HepG2 cells	%	57.49
NS(=O)(=O)c1ccc(/N=C/c2ccc(F)cc2)cc1	human HepG2 cells	%	73.56
